Would you kindly list inhibition for each of these compounds?
Target: Hexose transporter 1 (Plasmodium falciparum)
Experiment: ST_JUDE_LEISH: Cytotoxicity at 2uM final concentration against transgenic Leishmania Mexicana promastigotes LmPfHT that are glucose transport deficient and complemented with the Plasmodium falciparum hexose transporter. Activity is measured by DNA content using SYBR green in vitro
Assay type: functional
Report field: quantity (unit follows the number).

>>> result("CC(C)CCNc1nc2ccccc2nc1Nc1cccc(C(F)(F)F)c1")
"3.55%"
>>> result("COc1cccc(-c2ccc(C(=O)NC3CCN(Cc4ccc(N(C)C)cc4)CC3)s2)c1")
"1.14%"

Can you give me inhibition for all of these, one by one?
1. CCOc1ccc(-c2nc(NC(=O)CS(=O)(=O)c3ccccc3)sc2C)cc1
2. N#Cc1ccc(C=Cc2nccc3c2[nH]c2ccccc23)cc1
3. O=c1cc(NCCCNCc2ccc(Cl)c(Cl)c2)[nH]c2cc(F)cc(F)c12

[reply]
2.62%
9.49%
2.15%

###

Would you kindly list inhibition for each of these compounds?
Molecular target: Hexose transporter 1 (Plasmodium falciparum) (UniProt O97467)
Assay: ST_JUDE_LEISH: Cytotoxicity at 2uM final concentration against transgenic Leishmania Mexicana promastigotes LmPfHT that are glucose transport deficient and complemented with the Plasmodium falciparum hexose transporter. Activity is measured by DNA content using SYBR green in vitro
Type: functional
Give bare numbers, in %.

Recorded results for 3 compounds are shown here.
>>> numeric_result("COc1cc(F)c2ncc(Cl)c([C@@H](O)CN3CCC(NCc4ccc5c(n4)NC(=O)CO5)CC3)c2c1")
3.3
>>> numeric_result("COc1ccc(NC(=O)[C@H](Cc2ccccc2)Nc2cc(C)nc(NCCOc3ccccc3)n2)cc1")
2.78
>>> numeric_result("CN(C)C=Nc1ccc(OCCCCCCOc2ccc(N=CN(C)C)cc2)cc1")
3.26

Can you give me inhibition for all of these, one by one?
1. COc1ccc(CNc2nccc3ccc(-c4ccc(N)nc4)cc23)cc1
2. O=C1CCCN1CCCNCc1cccc(-c2ccc(-c3nc4cc(C(F)(F)F)ccc4[nH]3)s2)c1
3. COc1cccc(-c2ccc3ccnc(N)c3c2)c1
4. N#Cc1cccc(Nc2cc(C(F)(F)F)nc(Nc3ccccc3)n2)c1
5. O=C(Nc1ccc(Cl)c(Cl)c1)Nc1cc(C(F)(F)F)ccc1Cl

[reply]
-0.06
3.19
4.24
11.3
1.37

Can you give me inhibition for all of these, one by one?
1. Cc1ccc2c(N/N=C/c3cccc([N+](=O)[O-])c3)cc(C)nc2c1
2. COc1cccc(CNC(=O)NC2CCN(c3ccnc(Nc4cc(OC)c(OC)c(OC)c4)n3)C2)c1 (stereo unspecified)
3. CC(C)c1ccc(OCC(O)CN(CCN2CCOCC2)C(=O)Nc2ccc(Br)cc2)cc1 (stereo unspecified)

[reply]
4.7
1.6
5.63

###

Target: Glucose transporter (Leishmania mexicana) (UniProt O61059)
Assay: ST_JUDE_LEISH: Cytotoxicity at 2uM final concentration against transgenic Leishmania Mexicana promastigotes LmGT2 that are glucose transport deficient and complemented with the L. Mexicana glucose transporter 2. Activity is measured by DNA content using SYBR green in vitro
Format: functional
Endpoint Name: inhibition (%)
Answers are plain numbers, in %.

Recorded results for 5 compounds are shown here.
>>> numeric_result("N=C(N)NN=Cc1c[nH]c2ccc(-c3ccccc3)cc12")
1.34
>>> numeric_result("Cc1cc(NCCc2cccc(F)c2)nc(NC(=N)Nc2cccc(C(F)(F)F)c2)n1")
2.41
>>> numeric_result("O=C(O)C1Cc2c([nH]c3ccccc23)C(c2ccc(Cl)cc2Cl)N1 (configuration not stated)")
4.37
>>> numeric_result("Cc1cccc2nc(-c3ccc(-c4cccc(CNCCc5ccncc5)c4)s3)[nH]c12")
2.73
>>> numeric_result("CCCN1CCN(CCCNC(=O)c2cc3c(-c4ccc(Cl)cc4)nn(C)c3s2)CC1")
10.2

Can you give me inhibition for all of these, one by one?
1. O=C(NCc1ccccc1)Nc1ccc(-c2cccc(-c3nc4cc(C(F)(F)F)ccc4[nH]3)c2)cc1
2. CS(=O)(=O)NCCCNCc1cccc(-c2cccc(-c3nc4cc(C(F)(F)F)ccc4[nH]3)c2)c1
3. O=C(/C=C/c1ccc(Cl)c(Cl)c1)N1CCC(CCN2CCC(c3c[nH]c4cnccc34)CC2)CC1
4. CCCNCc1ccc(-c2ccc(CN(Cc3cnc(C)cn3)C(=O)/C=C/c3ccccc3C)cc2)nc1

[reply]
1. -1.23
2. -1.5
3. 5.81
4. 0.97

Can you give me inhibition for all of these, one by one?
1. CCc1cc(Cc2cnc(N)nc2N)cc(CC)c1OC
2. CCOc1ccccc1N1CCN(CCCNC(=O)/C(=C/C=C/c2cc3cc(Cl)c(Cl)cc3[nH]2)OC)CC1
3. Cc1ccc(C(c2nnnn2C2CCCC2)N(Cc2ccco2)Cc2ccccc2Cl)cc1 (configuration not stated)

[reply]
[-1.28, 1.24, 8.53]
